procedure-text: chemical genetic growth profiling, strain panel (AID 1159580);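 also: tested at 20 µM; growth read once vehicle control cultures reached saturation at 30 °C; lower values mean less growth of the strain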
stated-conditions: S. cerevisiae deletion strains, growth OD, locus YLR027C, strain aat2
The campaign covered roughly 5,500 compounds. About 2,000 (36%) were called active. Roughly 18% stayed inconclusive and do not appear here. Rule as the data show it: active = normalized growth mostly below about 0.91 (no sharp cut-off); inconclusive = no clear call, values can overlap the other calls; inactive = mostly above about 0.92. Some of the results follow.
Possible outcomes: y = active, n = inactive

CC(=O)OC1CCC2(C)C3CC(=O)C4(C)C(CC5OC6(CCC(C)CO6)[C@@H](C)C54)C3CC[C@H]2C1 (stereo not given in full) :: n
CC(=O)O[C@@H]1CC[C@]2(C)C3CC[C@]4(C)C(=O)CCC4C3CC[C@H]2C1 (stereo not given in full) :: n
O=c1oc2c(O)c(O)cc3c(=O)oc4c(O)c(O)cc1c4c23 :: y
CCOc1ccc(C(=O)c2ccc(OC)c(O)c2O)cc1 :: n
CC(=O)O[C@H]1CC[C@]2(C)C3CC(=O)[C@]4(C)C(C(C)=O)=CCC4C3CC[C@H]2C1 (stereo not given in full) :: n
NC(=O)N1c2ccccc2C=Cc2ccccc21 :: n
CC1(C)C=Cc2cc3ccc(=O)oc3cc2O1 :: n
CN1C(=O)CCS(=O)(=O)C1c1ccc(Cl)cc1 (stereo not given) :: n
COc1ccc(C(=O)c2ccccc2)c(O)c1O :: n
COc1cnc(NS(=O)(=O)c2ccc(N)cc2)nc1 :: n
CCCCc1nc(Cl)c(CO)n1Cc1ccc(-c2ccccc2-c2nn[nH]n2)cc1 :: n
CO[C@@]1(NC(=O)Cc2cccs2)C(=O)N2C(C(=O)O)=C(COC(N)=O)CS[C@@H]21 :: n
COC(=O)C[C@H]1C(C)(C)[C@@H](O)[C@@H]2CC3=C4C=C(OC)O[C@@H](c5ccoc5)[C@]4(C)CCC3[C@@]1(C)C2=O (stereo not given in full) :: n
OC(c1cc(C(F)(F)F)nc2c(C(F)(F)F)cccc12)C1CCCCN1 (stereo not given) :: n
C=C(C)[C@@H]1CC[C@]2(CO)CC[C@]3(C)[C@H](CCC4[C@@]5(C)CC[C@H](O)C(C)(C)C5CC[C@]43C)C12 (stereo not given in full) :: n
CCc1cccc2c3c([nH]c12)C(CC)(CC(=O)O)OCC3 (stereo not given) :: n
Cc1c(NC(=O)c2cccnc2)c(=O)n(-c2ccccc2)n1C :: n
NC(=O)NO :: n
CCCCCCCCCCCCCCCCCCOCC(O)CO (stereo not given) :: n
CN[C@@H]1[C@@H](O[C@H]2O[C@H](CO)[C@@H](N)[C@H](O)[C@H]2O)O[C@H]2C[C@@H](N)[C@H](O[C@H]3[C@H](O)[C@@H](O)[C@H](N)C[C@@H]3N)O[C@@H]2[C@@H]1O :: n
